# Test system: Escherichia coli
# METHOD_DESCRIPTION: Antibacterial activity against Escherichia coli after 18 to 20 hrs by broth micro dilution assay
# Type: functional
Would you mind telling me the reported MIC50 of each entry?

QUERY: // query MIC50 value for entry CCC1[C@@H]2c3c(c4ccccc4n(C)c3=O)OC(c3ccccc3)[C@H]2CN1OS(=O)(=O)c1ccc(C)cc1 (mixture of isomers)
RESULT: 128 µg/mL

QUERY: // query MIC50 value for entry CCC1[C@@H]2Nc3ccccc3C(c3ccccc3)[C@H]2CN1OS(=O)(=O)c1ccc(C)cc1 (stereo partly drawn)
RESULT: 64 µg/mL

QUERY: // query MIC50 value for entry CCC1[C@@H]2Nc3ccc(Cl)cc3C(c3ccccc3)[C@H]2CN1OS(=O)(=O)c1ccc(C)cc1 (stereo partly drawn)
RESULT: 128 µg/mL

QUERY: // query MIC50 value for entry CCC1[C@H]2c3c(n(C)c4ccccc4c3=O)OC(c3ccccc3)[C@@H]2CN1OS(=O)(=O)c1ccc(C)cc1 (mixture of isomers)
RESULT: 128 µg/mL

QUERY: // query MIC50 value for entry CCC1[C@@H]2c3c(c4ccccc4n(C)c3=O)OC(C)(C)[C@H]2CN1OS(=O)(=O)c1ccc(C)cc1 (mixture of isomers)
RESULT: 0.5 µg/mL

QUERY: // query MIC50 value for entry CCC1[C@@H]2Nc3ccc(Br)cc3C(c3ccccc3)[C@H]2CN1OS(=O)(=O)c1ccc(C)cc1 (stereo partly drawn)
RESULT: 0.25 µg/mL

QUERY: // query MIC50 value for entry CCC1[C@@H]2Nc3ccc(Cl)cc3C(C)(C)[C@H]2CN1OS(=O)(=O)c1ccc(C)cc1 (stereo partly drawn)
RESULT: 128 µg/mL

QUERY: // query MIC50 value for entry CCC1[C@H]2c3c(n(C)c4ccccc4c3=O)OC(C)(C)[C@@H]2CN1OS(=O)(=O)c1ccc(C)cc1 (mixture of isomers)
RESULT: 0.5 µg/mL

* * *

Would you mind telling me the reported MIC90 of each entry?
# System: Klebsiella pneumoniae
# METHOD_DESCRIPTION: Antibacterial activity against Klebsiella pneumoniae after 18 to 20 hrs by broth micro dilution assay
# Type: functional
Report field: quantity (unit follows the number).

QUERY: Notebook: pull reported MIC90 for Klebsiella pneumoniae, entry O=C(O)c1cn(C2CC2)c2cc(N3CCNCC3)c(F)cc2c1=O
RESULT: 1 mg/L

QUERY: Notebook: pull reported MIC90 for Klebsiella pneumoniae, entry CCC1[C@H]2c3c(n(C)c4ccccc4c3=O)OC(C)(C)[C@@H]2CN1OS(=O)(=O)c1ccc(C)cc1 (mixture of isomers)
RESULT: 0.5 mg/L

QUERY: Notebook: pull reported MIC90 for Klebsiella pneumoniae, entry CCC1[C@H]2c3c(n(C)c4ccccc4c3=O)OC(c3ccccc3)[C@@H]2CN1OS(=O)(=O)c1ccc(C)cc1 (mixture of isomers)
RESULT: 128 mg/L

QUERY: Notebook: pull reported MIC90 for Klebsiella pneumoniae, entry CCC1[C@@H]2c3c(c4ccccc4n(C)c3=O)OC(C)(C)[C@H]2CN1OS(=O)(=O)c1ccc(C)cc1 (mixture of isomers)
RESULT: 0.5 mg/L

QUERY: Notebook: pull reported MIC90 for Klebsiella pneumoniae, entry CCC1[C@@H]2c3c(c4ccccc4n(C)c3=O)OC(c3ccccc3)[C@H]2CN1OS(=O)(=O)c1ccc(C)cc1 (mixture of isomers)
RESULT: 128 mg/L

QUERY: Notebook: pull reported MIC90 for Klebsiella pneumoniae, entry CCC1[C@@H]2Nc3ccccc3C(c3ccccc3)[C@H]2CN1OS(=O)(=O)c1ccc(C)cc1 (some centres undefined)
RESULT: 64 mg/L

QUERY: Notebook: pull reported MIC90 for Klebsiella pneumoniae, entry CCC1[C@@H]2Nc3ccc(Cl)cc3C(C)(C)[C@H]2CN1OS(=O)(=O)c1ccc(C)cc1 (some centres undefined)
RESULT: 128 mg/L

QUERY: Notebook: pull reported MIC90 for Klebsiella pneumoniae, entry CCC1[C@@H]2Nc3ccc(Cl)cc3C(c3ccccc3)[C@H]2CN1OS(=O)(=O)c1ccc(C)cc1 (some centres undefined)
RESULT: 128 mg/L

QUERY: Notebook: pull reported MIC90 for Klebsiella pneumoniae, entry CCC1[C@@H]2Nc3ccc(Br)cc3C(c3ccccc3)[C@H]2CN1OS(=O)(=O)c1ccc(C)cc1 (some centres undefined)
RESULT: 0.5 mg/L

* * *

Would you mind telling me the reported zone of inhibition at 10 µg/disc of each entry?
# System: Klebsiella pneumoniae
# METHOD_DESCRIPTION: Antibacterial activity against Klebsiella pneumoniae at 10 ug after 24 hrs by disc diffusion assay
# Assay type: functional
# EXPERIMENTAL_PARAMETERS: read-out: IZ
Number in mm, nothing else.

QUERY: // query zone of inhibition at 10 µg/disc value for entry CCC1[C@@H]2c3c(c4ccccc4n(C)c3=O)OC(c3ccccc3)[C@H]2CN1OS(=O)(=O)c1ccc(C)cc1 (mixture of isomers)
RESULT: 26

QUERY: // query zone of inhibition at 10 µg/disc value for entry CCC1[C@@H]2Nc3ccccc3C(c3ccccc3)[C@H]2CN1OS(=O)(=O)c1ccc(C)cc1 (some centres undefined)
RESULT: 26

QUERY: // query zone of inhibition at 10 µg/disc value for entry O=C(O)c1cn(C2CC2)c2cc(N3CCNCC3)c(F)cc2c1=O
RESULT: 26

QUERY: // query zone of inhibition at 10 µg/disc value for entry CCC1[C@@H]2Nc3ccc(Br)cc3C(c3ccccc3)[C@H]2CN1OS(=O)(=O)c1ccc(C)cc1 (some centres undefined)
RESULT: 14

QUERY: // query zone of inhibition at 10 µg/disc value for entry CCC1[C@@H]2c3c(c4ccccc4n(C)c3=O)OC(C)(C)[C@H]2CN1OS(=O)(=O)c1ccc(C)cc1 (mixture of isomers)
RESULT: 26

QUERY: // query zone of inhibition at 10 µg/disc value for entry CCC1[C@H]2c3c(n(C)c4ccccc4c3=O)OC(c3ccccc3)[C@@H]2CN1OS(=O)(=O)c1ccc(C)cc1 (mixture of isomers)
RESULT: 26

QUERY: // query zone of inhibition at 10 µg/disc value for entry CCC1[C@@H]2Nc3ccc(Cl)cc3C(c3ccccc3)[C@H]2CN1OS(=O)(=O)c1ccc(C)cc1 (some centres undefined)
RESULT: 26

QUERY: // query zone of inhibition at 10 µg/disc value for entry CCC1[C@H]2c3c(n(C)c4ccccc4c3=O)OC(C)(C)[C@@H]2CN1OS(=O)(=O)c1ccc(C)cc1 (mixture of isomers)
RESULT: 14

QUERY: // query zone of inhibition at 10 µg/disc value for entry CCC1[C@@H]2Nc3ccc(Cl)cc3C(C)(C)[C@H]2CN1OS(=O)(=O)c1ccc(C)cc1 (some centres undefined)
RESULT: 26

* * *

# Tested on: Staphylococcus aureus
# METHOD_DESCRIPTION: Antibacterial activity against Staphylococcus aureus at 10 ug after 24 hrs by disc diffusion assay
# Format: functional
# EXPERIMENTAL_PARAMETERS: read-out: IZ
Would you mind telling me the reported zone of inhibition at 10 µg/disc of each entry?
Report field: quantity (unit follows the number).

QUERY: // query zone of inhibition at 10 µg/disc value for entry CCC1[C@H]2c3c(n(C)c4ccccc4c3=O)OC(c3ccccc3)[C@@H]2CN1OS(=O)(=O)c1ccc(C)cc1 (mixture of isomers)
RESULT: 24 mm

QUERY: // query zone of inhibition at 10 µg/disc value for entry O=C(O)c1cn(C2CC2)c2cc(N3CCNCC3)c(F)cc2c1=O [CIPROFLOXACIN]
RESULT: 24 mm

QUERY: // query zone of inhibition at 10 µg/disc value for entry CCC1[C@@H]2Nc3ccc(Br)cc3C(c3ccccc3)[C@H]2CN1OS(=O)(=O)c1ccc(C)cc1 (some centres undefined)
RESULT: 24 mm

QUERY: // query zone of inhibition at 10 µg/disc value for entry CCC1[C@@H]2Nc3ccccc3C(c3ccccc3)[C@H]2CN1OS(=O)(=O)c1ccc(C)cc1 (some centres undefined)
RESULT: 24 mm

QUERY: // query zone of inhibition at 10 µg/disc value for entry CCC1[C@H]2c3c(n(C)c4ccccc4c3=O)OC(C)(C)[C@@H]2CN1OS(=O)(=O)c1ccc(C)cc1 (mixture of isomers)
RESULT: 24 mm

QUERY: // query zone of inhibition at 10 µg/disc value for entry CCC1[C@@H]2c3c(c4ccccc4n(C)c3=O)OC(C)(C)[C@H]2CN1OS(=O)(=O)c1ccc(C)cc1 (mixture of isomers)
RESULT: 12 mm

QUERY: // query zone of inhibition at 10 µg/disc value for entry CCC1[C@@H]2Nc3ccc(Cl)cc3C(C)(C)[C@H]2CN1OS(=O)(=O)c1ccc(C)cc1 (some centres undefined)
RESULT: 24 mm

QUERY: // query zone of inhibition at 10 µg/disc value for entry CCC1[C@@H]2Nc3ccc(Cl)cc3C(c3ccccc3)[C@H]2CN1OS(=O)(=O)c1ccc(C)cc1 (some centres undefined)
RESULT: 12 mm

QUERY: // query zone of inhibition at 10 µg/disc value for entry CCC1[C@@H]2c3c(c4ccccc4n(C)c3=O)OC(c3ccccc3)[C@H]2CN1OS(=O)(=O)c1ccc(C)cc1 (mixture of isomers)
RESULT: 12 mm
